# Tested On: P. stipitis XR (xylose reductase, XYL1) (Scheffersomyces stipitis, UniProt P31867, K270M)
# Construct: native full-length XYL1 from plasmid pY7, chromosomally integrated in S. cerevisiae TMB 3044 (gre3 deleted); crude cell extract
# Sequence (P31867 whole entry K270M): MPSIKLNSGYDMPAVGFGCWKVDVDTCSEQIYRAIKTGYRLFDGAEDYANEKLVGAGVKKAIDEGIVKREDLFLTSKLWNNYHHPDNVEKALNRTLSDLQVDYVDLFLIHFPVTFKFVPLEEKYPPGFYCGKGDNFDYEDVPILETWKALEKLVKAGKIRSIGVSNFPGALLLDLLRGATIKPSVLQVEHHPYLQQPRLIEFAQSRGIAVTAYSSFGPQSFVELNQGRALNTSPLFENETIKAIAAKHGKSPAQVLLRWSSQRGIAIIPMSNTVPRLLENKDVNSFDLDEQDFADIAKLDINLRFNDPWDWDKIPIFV
# Measurement Notes: NAD(P)H absorbance at […] nm, initial rates fitted to compulsory-order ternary-complex equation
# Particulars: crude extract, xylose co-substrate varied, pH 7.0 triethanolamine, 30°C; kinetic dissociation constant; read-out: KiA
Readout Name: pKd
Numbers only, as −log10 of the molar value.

// pKd value for NC(=O)C1=CN([C@@H]2O[C@H](COP(=O)(O)OP(=O)(O)OC[C@H]3O[C@@H](n4cnc5c(N)ncnc54)[C@H](OP(=O)(O)O)[C@@H]3O)[C@@H](O)[C@H]2O)C=CC1 [NADPH] : 3.53

The measurements presented in this section are drawn from paper PMC2688486.
